Molecular target: T1, soluble recombinant G protein (amino acids 66-292 of the 18537 strain sequence) (RSV strain 18537 (subtype B), UniProt P20896 66-292)
T1 construct: also called G(B); recombinant protein G
T1 sequence: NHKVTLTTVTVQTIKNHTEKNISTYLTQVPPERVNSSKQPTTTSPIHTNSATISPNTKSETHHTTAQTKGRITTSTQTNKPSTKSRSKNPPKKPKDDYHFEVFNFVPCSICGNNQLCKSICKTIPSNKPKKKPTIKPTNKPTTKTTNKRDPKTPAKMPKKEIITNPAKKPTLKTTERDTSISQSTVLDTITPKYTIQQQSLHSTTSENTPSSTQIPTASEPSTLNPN
Experiment: SPR (Biacore 3000), Fab over immobilised recombinant antigen;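 also: antigen immobilised on CM5 chip at very low density (about 50 RU), rate constants fitted globally with a 1:1 Langmuir model, Fabs obtained by enzymatic cleavage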
Kd: recorded values
Field: numeric (pM). Do not append units.

Binder | Kd [pM]
Fab fragment of antibody from clone 811 (Fab, V domains shown, also called Fab clone 811; 811 (G)) VH: QVQLVQSGAVVETPGASVKVSCKASGYIFGNYYIHWVRQAPGQGLEWMAVINPNGGSTTSAQKFQDRITVTRDTSTTTVYLEVDNLRSEDTATYYCARQRSVTGGFDAWLLIPDASNTWGQGTMVTVSS VL: DIVMTQSPDSLAVSLGERATINCRSSETVLYTSKNQSYLAWYQQKARQPPKLLLYWASTRESGVPARFSGSGSGTDFTLAISSLQAEDVAVYYCQQFFRSPFTFGPGTRLEIKR | 340
Fab fragment of antibody from clone 859 (Fab, V domains shown, also called Fab clone 859; 859 (G)) VH: QVQLVESGGGVVQPGRSLRLSCAVSGSSFSKYGIHWVRQAPGKGLEWVAVISYDGSKKYFTDSVKGRFTIARDNSQNTVFLQMNSLRAEDTAVYYCATGGGVNVTSWSDVEHSSSLGYWGLGTLVTVSS VL: DIQMTQSPSSLSASVGDRVTITCRASQGIRNYLAWYQQKPGKVPKLLVFAASTLQSGVPSRFSGSGSGTDFTLTISSLQPEDVATYYCQRYNSAPLTFGGGTKVEIKR | 120

Q: Which Kd value is on record for Fab fragment of antibody from clone 838 (Fab, V domains shown, also called Fab clone 838; 838 (G)) VH: QVQLVESGGGVVQPGTSLRLSCAASGFTFSTFGMHWVRQAPGKGLEWVAVISYDGNKKYYADSVKGRFTISRDNSKNTLYLQVNSLRVEDTAVYYCAAQTPYFNESSGLVPDWGQGTLVTVSS VL: DIQMTQSPSSLSASVGDRVSITCRASQGISNYLAWYQQKPGKVPKLLIYAASTLQSGVPSRFSGSGSGTDFTLTISSLQPEDVATYYCQKYNSAPQTFGQGTKVEIKR ?
Result: 190

Data origin, for the record: patent US20100040606A1
